experimental system: Macrophage colony-stimulating factor 1 receptor (Homo sapiens, UniProt P07333)
Sequence (P07333 whole entry): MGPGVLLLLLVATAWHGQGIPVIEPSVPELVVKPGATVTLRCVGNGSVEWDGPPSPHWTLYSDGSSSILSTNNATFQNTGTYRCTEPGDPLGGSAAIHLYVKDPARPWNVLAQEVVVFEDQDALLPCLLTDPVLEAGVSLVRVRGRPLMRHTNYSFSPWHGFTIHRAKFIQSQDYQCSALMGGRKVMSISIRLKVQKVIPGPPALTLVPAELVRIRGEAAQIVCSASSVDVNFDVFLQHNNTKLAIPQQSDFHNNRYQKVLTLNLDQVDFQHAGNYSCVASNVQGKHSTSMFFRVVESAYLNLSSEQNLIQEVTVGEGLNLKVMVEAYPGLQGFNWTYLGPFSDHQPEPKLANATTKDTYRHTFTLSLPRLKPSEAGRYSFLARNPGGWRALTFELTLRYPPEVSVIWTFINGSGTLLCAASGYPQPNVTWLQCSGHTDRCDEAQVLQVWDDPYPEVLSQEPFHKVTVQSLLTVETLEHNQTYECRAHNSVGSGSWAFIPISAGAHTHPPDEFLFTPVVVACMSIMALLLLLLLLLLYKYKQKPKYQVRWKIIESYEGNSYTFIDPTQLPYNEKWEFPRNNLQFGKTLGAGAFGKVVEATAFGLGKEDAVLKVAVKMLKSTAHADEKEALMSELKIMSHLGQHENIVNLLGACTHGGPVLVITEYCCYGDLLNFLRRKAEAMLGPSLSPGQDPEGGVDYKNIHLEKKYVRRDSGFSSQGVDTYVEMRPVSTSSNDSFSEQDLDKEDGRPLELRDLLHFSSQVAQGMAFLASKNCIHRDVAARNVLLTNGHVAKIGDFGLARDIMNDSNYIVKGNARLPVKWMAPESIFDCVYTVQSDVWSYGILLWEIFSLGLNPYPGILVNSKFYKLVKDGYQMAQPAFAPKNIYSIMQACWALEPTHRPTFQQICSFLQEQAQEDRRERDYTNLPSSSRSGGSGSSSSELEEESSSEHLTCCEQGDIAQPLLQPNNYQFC
attribute measured: pIC50
Reminder that pIC50 is minus the log10 of a molar concentration.

Form: item Nc1n[nH]c2nccc(-c3ccc(NC(=O)Nc4cccc(C(F)(F)F)c4)cc3)c12 ; test system Macrophage colony-stimulating factor 1 receptor (Homo sapiens, UniProt P07333); pIC50: 8.52

----------
assay: AUC in mouse at 10 mg/kg, po
Type: ADME, organism-based
Parameters: dose 10 mg/kg, route oral
particulars: plasma
attribute measured: AUC (µM·h)
Quick reminder: number only, in µM·h, skip the unit.

See these solved cases before continuing.
| smiles representation | result unit | AUC |
| --- | --- | --- |
| Cc1ccc(F)c(NC(=O)Nc2ccc(-c3ccnc4[nH]nc(N)c34)cc2)c1 | µM·h | 15.7 |
| Cc1cc(C)cc(NC(=O)Nc2ccc(-c3nccc4[nH]nc(N)c34)cc2)c1 | µM·h | 0.89 |
| Cc1ccc(F)c(NC(=O)Nc2ccc(-c3cncc4c3c(N)nn4C)cc2)c1 | µM·h | 30.2 |

From here, focus on the item given below.
AUC in this record for Cc1cccc(NC(=O)Nc2ccc(-c3cncc4c3c(N)nn4C)cc2)c1 : 25

----------
experimental system: Tyrosine-protein kinase Fyn (Homo sapiens)
Sequence (P06241 whole entry): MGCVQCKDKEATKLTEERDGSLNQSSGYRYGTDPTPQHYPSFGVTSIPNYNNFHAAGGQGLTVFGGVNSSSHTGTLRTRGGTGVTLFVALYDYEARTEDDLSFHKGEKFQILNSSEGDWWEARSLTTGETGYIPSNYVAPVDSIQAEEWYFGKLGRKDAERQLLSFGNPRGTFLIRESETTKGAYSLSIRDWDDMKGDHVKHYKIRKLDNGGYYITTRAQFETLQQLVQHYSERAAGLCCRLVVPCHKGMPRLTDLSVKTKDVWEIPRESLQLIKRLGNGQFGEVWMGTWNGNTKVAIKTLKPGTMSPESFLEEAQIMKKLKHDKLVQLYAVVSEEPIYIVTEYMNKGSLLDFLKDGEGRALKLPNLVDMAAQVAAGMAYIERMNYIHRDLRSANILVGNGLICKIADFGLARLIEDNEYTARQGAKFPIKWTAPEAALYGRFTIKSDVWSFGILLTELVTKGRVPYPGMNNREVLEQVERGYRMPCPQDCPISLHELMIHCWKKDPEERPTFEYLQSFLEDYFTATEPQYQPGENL
attribute measured: pIC50
Reminder that pIC50 is minus the log10 of a molar concentration.

Form: item Nc1n[nH]c2nccc(-c3ccc(NC(=O)Nc4cccc(C(F)(F)F)c4)cc3)c12 ; test system Tyrosine-protein kinase Fyn (Homo sapiens); pIC50: 4.93

----------
assay: Oral bioavailability in mouse at 10 mg/kg
Format: ADME, organism-based
particulars: in vivo
attribute measured: bioavailability (%)
Quick reminder: number only, in %, skip the unit.

See these solved cases before continuing.
| smiles representation | result unit | measured |
| --- | --- | --- |
| Cc1cccc(NC(=O)Nc2ccc(-c3cncc4c3c(N)nn4C)cc2)c1 | % | 71 |
| Cc1ccc(F)c(NC(=O)Nc2ccc(-c3cncc4c3c(N)nn4C)cc2)c1 | % | 81 |
| Cc1ccc(F)c(NC(=O)Nc2ccc(-c3ccnc4[nH]nc(N)c34)cc2)c1 | % | 62 |

From here, focus on the item given below.
bioavailability in this record for Cc1cc(C)cc(NC(=O)Nc2ccc(-c3nccc4[nH]nc(N)c34)cc2)c1 : 9

----------
assay: Aqueous solubility at pH 7.2
Assay type: physicochemical
particulars: buffer
attribute measured: solubility (µM)
Quick reminder: number only, in µM, skip the unit.

See these solved cases before continuing.
| molecule | measured |
| --- | --- |
| Cc1ccc(F)c(NC(=O)Nc2ccc(-c3cncc4[nH]nc(N)c34)cc2)c1 | 5.8 |
| Cc1ccc(F)c(NC(=O)Nc2ccc(-c3nccc4[nH]nc(N)c34)cc2)c1 | 9.5 |
| Cc1ccc(F)c(NC(=O)Nc2ccc(-c3cccc4[nH]nc(N)c34)cc2)c1 [LINIFANIB] | 0.07 |

solubility in this record for Nc1n[nH]c2nccc(-c3ccc(NC(=O)Nc4cccc(Cl)c4)cc3)c12 : 1.6

----------
experimental system: Vascular endothelial growth factor receptor 1 (Homo sapiens)
Sequence (P17948 whole entry): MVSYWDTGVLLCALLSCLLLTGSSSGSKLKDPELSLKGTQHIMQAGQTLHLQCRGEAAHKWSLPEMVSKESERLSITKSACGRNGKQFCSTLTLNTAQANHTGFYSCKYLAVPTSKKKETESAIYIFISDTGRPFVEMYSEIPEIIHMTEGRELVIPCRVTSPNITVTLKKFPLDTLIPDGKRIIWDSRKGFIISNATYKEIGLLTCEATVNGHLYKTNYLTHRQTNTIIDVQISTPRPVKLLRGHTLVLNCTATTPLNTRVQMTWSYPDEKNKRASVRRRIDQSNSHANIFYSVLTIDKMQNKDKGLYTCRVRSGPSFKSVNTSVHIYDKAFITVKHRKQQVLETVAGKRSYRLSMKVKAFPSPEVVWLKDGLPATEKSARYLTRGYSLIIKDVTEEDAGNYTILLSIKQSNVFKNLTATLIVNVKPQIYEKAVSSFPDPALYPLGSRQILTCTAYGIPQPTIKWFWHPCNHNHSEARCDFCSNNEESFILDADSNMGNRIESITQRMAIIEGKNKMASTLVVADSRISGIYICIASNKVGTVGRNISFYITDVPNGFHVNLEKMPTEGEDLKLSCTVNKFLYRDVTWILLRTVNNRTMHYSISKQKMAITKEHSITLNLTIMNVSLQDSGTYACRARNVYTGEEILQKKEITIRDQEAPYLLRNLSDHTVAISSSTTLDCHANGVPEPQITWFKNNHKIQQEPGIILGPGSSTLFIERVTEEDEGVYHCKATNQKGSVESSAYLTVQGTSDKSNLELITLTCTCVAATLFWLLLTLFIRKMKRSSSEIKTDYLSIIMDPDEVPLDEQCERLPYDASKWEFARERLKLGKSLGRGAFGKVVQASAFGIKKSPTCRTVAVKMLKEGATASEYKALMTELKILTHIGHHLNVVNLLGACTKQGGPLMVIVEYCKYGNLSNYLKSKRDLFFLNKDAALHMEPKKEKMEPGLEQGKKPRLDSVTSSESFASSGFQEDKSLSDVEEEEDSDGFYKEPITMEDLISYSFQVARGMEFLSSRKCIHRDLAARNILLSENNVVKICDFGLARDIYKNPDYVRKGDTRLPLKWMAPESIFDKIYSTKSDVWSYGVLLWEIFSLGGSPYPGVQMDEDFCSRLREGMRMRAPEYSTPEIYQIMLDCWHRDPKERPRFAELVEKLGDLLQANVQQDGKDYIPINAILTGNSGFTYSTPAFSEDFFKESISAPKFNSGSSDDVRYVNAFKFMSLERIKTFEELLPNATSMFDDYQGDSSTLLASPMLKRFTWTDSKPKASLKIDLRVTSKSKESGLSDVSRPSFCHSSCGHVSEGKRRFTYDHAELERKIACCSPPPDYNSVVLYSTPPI
attribute measured: IC50 (nM)
Quick reminder: number only, in nM, skip the unit.

Form: item Nc1n[nH]c2nccc(-c3ccc(NC(=O)Nc4cccc(C(F)(F)F)c4)cc3)c12 ; test system Vascular endothelial growth factor receptor 1 (Homo sapiens); IC50: 5
